Each item that follows carries a reported pIC50.
Molecular target: wild type MLL1 four-member complex (MLL1-4C) (Homo sapiens, UniProt Q03164)
Assay: MLL1 LC-MS Assay
Assay type: biochemical
Conditions: read-out: MLL1 LCMS
pIC50: −log10 of the molar value.

Which pIC50 is reported for this compound? CCc1cc(Cl)cc(N2CC[C@](N)(C(=O)NC(C)C)C2)c1Cn1cnc2c(N)ncnc21 [Example 161] > 7.30

Item under review: CCc1c(Cl)ccc(N2CC[C@](N)(C(=O)NCCS(=O)(=O)c3ccccc3)C2)c1Cn1cnc2c(N)ncnc21 [Example 145] . Reported pIC50? > 7.30

Need pIC50 of Cc1ccc(Cl)c(Cn2cnc3c(N)ncnc32)c1N1CCC(N)(C(=O)NC2CC2)C1 (stereo not drawn) [Example 157] , thanks. < 7.00

Suppose we examine the compound Nc1ncnc2c1ncn2Cc1c(N2CC[C@](N)(C(=O)NC3CC3)C2)ccc(Br)c1C(F)(F)F [Example 146] ; what pIC50 value has been reported? > 7.30

Any idea what pIC50 was measured for CCc1cc(Cl)cc(N2CC[C@](N)(C(=O)N3CCS(=O)(=O)CC3)C2)c1Cn1cnc2c(N)ncnc21 [Example 151] ? < 7.00

Others:
Fill blank: measured pIC50 of the compound CCc1c(Cl)ccc(N2CC[C@](N)(C(=O)NC3CCS(=O)(=O)CC3)C2)c1Cn1cnc2c(N)ncnc21 [Example 153] is ____. > 7.30

// lookup pIC50 for Nc1ncnc2c1ncn2Cc1c(N2CC[C@](N)(C(=O)NC3CC3)C2)ccc2cc(Br)ccc12 [Example 167] > 7.30

pIC50 for CCc1c(Cl)ccc(N2CC[C@](N)(C(=O)NCCS(=O)(=O)CC)C2)c1Cn1cnc2c(N)ncnc21 [Example 149] ? > 7.30
